Molecular target: T1, rhIL-21-His (AB235875-1001, Abcam) (human, UniProt Q9HBE4 30-162)
T1 construct: bought; not shown: His tag, length and position not described
T1 sequence (Q9HBE4 30-162 limits assumed): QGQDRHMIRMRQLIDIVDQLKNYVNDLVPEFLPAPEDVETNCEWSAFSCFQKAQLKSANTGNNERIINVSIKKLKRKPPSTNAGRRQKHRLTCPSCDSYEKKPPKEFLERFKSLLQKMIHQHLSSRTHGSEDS
Test: SPR, Fab on captured rhIL-21-His
measure name: koff (s⁻¹)
Answers are plain numbers, in s⁻¹.

Example entries and their recorded answers appear below.
* ZXI489 Fab (Fab, V domains shown, Fab) VH: QVQLQESGPGLVKPSETLSLTCTVSGGSISSDYWGWIRQPPGKGLEWIGYISYRGSTNYNPSLKSRVTISVDTSRNQFSLKLSSVTAADTAVYYCARSAGVTDFDWWGQGTLVTVSS VL: DIQLTQSPSSVSASVGDRVTITCRASQGISSWLAWYQHKPGKAPKLLIYVASSLQSGVPSRFSGSGSGTDFTLTISSLQPEDFATYYCQQASSAPLTFGGGTKVEIK | 0.00484
* RPD212 Fab (Fab, V domains shown, Fab) VH: QVQLQESGPGLVKPSETLSLTCTVSGGSISSDYWGWIRQPPGKGLEWIGYISYSGSTNYNPSLKSRVTISVDTSRNQFSLKLSSVTAADTAVYYCARSAGVTDFDAWGQGTLVTVSS VL: DIQLTQSPSSVSASVGDRVTITCRASQGISSWLAWYQHKPGKAPKLLIYVASSLQSGVPSRFSGSGSGTDFTLTISSLQPEDFATYYCQQASSFPLTFGGGTKVEIK | 0.00015

# evaluate next
Prompt line: // returns reported koff for input CLJ397 Fab (Fab, V domains shown, Fab) VH: QVQLQESGPGLVKPSETLSLTCTVSGGSISSDYWGWIRQPPGKGLEWIGYISYRGSTNYNPSLKSRVTISVDTSRNQFSLKLSSVTAADTAVYYCARSAGVADFDAWGQGTLVTVSS VL: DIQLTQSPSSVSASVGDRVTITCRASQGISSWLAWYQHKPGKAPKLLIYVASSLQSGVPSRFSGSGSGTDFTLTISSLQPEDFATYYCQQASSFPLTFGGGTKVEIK
Response line: 0.00015
